Test system: SNB-75 CNS
assay-details: NCI tumour cell line growth inhibition, 48 h
parameter-measured: TGI

For reference, reported TGI for CC1(C)CC(=O)C2=C(C1)OC1=C(CC(C)(C)CC1=O)C2c1ccccc1[N+](=O)[O-] (stereo not given) stands at > 100 µM

For reference, reported TGI for CC(C)(C)OC(=O)NCCCCC(NC(=O)c1ccccc1)C(N)=O (stereo not given) stands at > 100 µM

For reference, reported TGI for "Cc1cc(N2CCN(C)CC2)n2nc(-c3ccc(Cl)cc3)nc2n1" stands at > 100 µM

For reference, reported TGI for "c1cc2c(cn1)Nc1ccncc1S2" stands at > 100 µM

For reference, reported TGI for NC(Cc1ccc(S(=O)(=O)O)cc1)C(=O)NC(Cc1ccc(S(=O)(=O)O)cc1)C(=O)O (stereo not given) stands at > 100 µM

For reference, reported TGI for O=C(Nc1nc2c(ncn2C2OC(CO)C(O)C2O)c(=O)[nH]1)c1ccccc1 (stereo not given) stands at > 100 µM

For reference, reported TGI for "CNc1ncc(-c2nnnn2-c2ccccc2)c(CN(C)C)n1" stands at > 100 µM

For reference, reported TGI for "CN(c1ccccc1)c1c(Cl)c(=O)oc2c1ccc1occc12" stands at > 100 µM

For reference, reported TGI for "C=CC(=O)N1CC2(CC(n3nc(-c4ccc5c(cnn5C)c4)c(-c4c(Cl)c(C)cc5[nH]ncc45)c3C)C2)C1" stands at 11.9 µM

For reference, reported TGI for "O=C(NNc1nc(-c2ccccc2)cs1)C(F)(F)F" stands at 91 µM

---

Tested on: CAKI-1 renal
assay-details: NCI tumour cell line growth inhibition, 48 h
parameter-measured: TGI (µM)
Unit µM implied. Number only.

Example cases with answers are listed next.
For reference, reported TGI for "COc1cc2cc(Oc3ccc(NC(=O)Nc4ccc(Cl)c(Cl)c4)cc3)c(C)nc2cc1OC" stands at 6.65

For reference, reported TGI for "CN(CC(=O)N(Cc1ccc(C2CCCCC2)cc1)c1ccc(C(=O)O)cc1)S(=O)(=O)c1c(F)c(F)c(F)c(F)c1F" stands at 4.31

Then there is this compound:
For reference, reported TGI for COc1cc(C2c3cc4c(cc3OC(N3CCNCC3)C2C)OCO4)cc(OC)c1OC (stereo not given) stands at 4.29

---

Tested on: MCF7 breast
assay-details: NCI tumour cell line growth inhibition, 48 h
In this section we review reported TGI values for a set of molecules.

For reference, reported TGI for "CN(CC(=O)N(Cc1ccc(C2CCCCC2)cc1)c1ccc(C(=O)O)cc1)S(=O)(=O)c1c(F)c(F)c(F)c(F)c1F" stands at 3.48 µM

***
For reference, reported TGI for "CCCCCCCCCCCC[n+]1ccc2ccccc2c1" stands at 2.88 µM

For reference, reported TGI for "CN1CCN(CCCOc2cccc3nc(Nc4ccc(Cl)c(C(F)(F)F)c4)ccc23)CC1" stands at 2.99 µM

For reference, reported TGI for "Cc1nc2c(=S)n(C)ncc2[nH]1" stands at > 100 µM

For reference, reported TGI for "COc1cc2nc(-c3cccs3)[nH]c(=O)c2cc1OC" stands at > 100 µM

For reference, reported TGI for CN1C(=O)C2(c3ccccc31)N(c1ccc(Cl)cc1)C(=O)C2(c1ccccc1)c1ccccc1 (stereo unspecified) stands at > 100 µM

For reference, reported TGI for "Cn1cc(C2=C(c3cn(CCCCCSC(=N)N)c4ccccc34)C(=O)NC2=O)c2ccccc21" stands at 4.97 µM

For reference, reported TGI for "Cn1c(N/N=C/c2ccccc2)nc(-c2ccc([N+](=O)[O-])cc2)c(C#N)c1=O" stands at > 100 µM

For reference, reported TGI for "CCn1c(SCC(=O)NNC(=S)NC)nc2ccccc2c1=O" stands at > 100 µM

For reference, reported TGI for "C#CCOc1ccc2ncnc(Nc3ccc(NC(=O)C=C)cc3)c2c1" stands at > 100 µM

For reference, reported TGI for "O=C(Nc1nc2ccccc2s1)Nc1ccc([N+](=O)[O-])cc1Cl" stands at 9.72 µM

---

In this section we review reported TGI values for a set of compounds.
System: A549 NSCLC
assay-details: NCI tumour cell line growth inhibition, 48 h
Unit µM implied. Number only.

Example cases with answers are listed next.
For reference, reported TGI for "COc1ccc(/C(C#N)=C2C=C/C(=N/O)c3ccccc3\2)cc1" stands at 13.4

For reference, reported TGI for "CO[C@H]1C[C@@H]2CC[C@@H](C)[C@@](O)(O2)C(=O)C(=O)N2CCCC[C@H]2C(=O)O[C@H]([C@H](C)C[C@@H]2CC[C@@H](OCCO)[C@H](OC)C2)CC(=O)[C@H](C)C=C(C)[C@@H](O)[C@@H](OC)C(=O)[C@H](C)C[C@H](C)/C=C/C=C/C=C1C" stands at 22.3

Then there is this compound:
For reference, reported TGI for "CC(=O)[O][Hg][c]1c(C)c(C)cc(C)c1C" stands at 15

---

Tested on: MOLT-4 leukemia
assay-details: NCI tumour cell line growth inhibition, 48 h
parameter-measured: TGI

Tested system MOLT-4 leukemia; TGI recorded for CC1(c2ccc(Cl)cc2)C2C(=O)NC(=O)C1C(=O)NC2=O (configuration not stated) was > 100 µM

Tested system MOLT-4 leukemia; TGI recorded for Nc1ncnc2c1ncn2C1CC(OCc2ccccc2[N+](=O)[O-])C(CO)O1 (configuration not stated) was > 50 µM

Tested system MOLT-4 leukemia; TGI recorded for CN1c2ccccc2N(C(=O)c2ccccc2)C(CC(=O)O)c2cccn21 (configuration not stated) was > 100 µM

Tested system MOLT-4 leukemia; TGI recorded for "CC(=O)NNc1nc(C)c(C(=O)NNC(=O)C(=O)Nc2ccc(Cl)cc2Cl)s1" was 57 µM

Tested system MOLT-4 leukemia; TGI recorded for Nc1ncnc2c1ncn2C1OC(CO)C(O)C1N (configuration not stated) was > 100 µM

***
Tested system MOLT-4 leukemia; TGI recorded for "CC(=O)N1CCn2c1nc1cc(Cl)ccc12" was > 100 µM

Tested system MOLT-4 leukemia; TGI recorded for "Cn1c(N/N=C/c2ccccc2)nc(-c2ccc([N+](=O)[O-])cc2)c(C#N)c1=O" was > 100 µM

---

Tested on: HCT-15 colon
assay-details: NCI tumour cell line growth inhibition, 48 h
parameter-measured: TGI

Tested system HCT-15 colon; TGI recorded for "Cc1cc(Cl)nc(N(CCCNc2ccnc3cc(Cl)ccc23)Cc2ccco2)n1" was 7.61 µM

Tested system HCT-15 colon; TGI recorded for "NS(=O)(=O)OCCCCCCCOS(N)(=O)=O" was 1190 µM

---

System: TK-10 renal
assay-details: NCI tumour cell line growth inhibition, 48 h
parameter-measured: TGI (µM)
Unit µM implied. Number only.

Example cases with answers are listed next.
For reference, reported TGI for "CC[n+]1c(/C=C/C=C2\N(C)c3ccccc3C2(C)C)sc2ccccc21" stands at 13.2

For reference, reported TGI for "Cc1cc(Cl)nc(N(CCCNc2ccnc3cc(Cl)ccc23)Cc2ccco2)n1" stands at 11.1

***
For reference, reported TGI for "CC(=O)[O][Hg][c]1c(C)c(C)cc(C)c1C" stands at 3.84

For reference, reported TGI for "NS(=O)(=O)OCCCCCCCOS(N)(=O)=O" stands at 1920

---

System: MCF7 breast
assay-details: NCI tumour cell line growth inhibition, 48 h; in the data active = GI50 below about 0.43 µM; inactive = the rest
Log the outcome using a class from yes (1) = active, no (0) = inactive

Here's what some known entries look like.
Record request — test call for "O=C1/C=C/[C@@H](O)[C@@H]2C[C@@H](O)C[C@H]2/C=C/CCC[C@H](C(F)(F)F)O1" yes (1)

Record request — test call for CN(Cc1cnc2nc(N)nc(N)c2n1)c1ccc(C(=O)NC(CCC(=O)O)C(=O)O)cc1Br (centres undefined) yes (1)

Record request — test call for "O=C(Nc1nc2ccccc2s1)Nc1ccc([N+](=O)[O-])cc1Cl" no (0)

Record request — test call for "COc1cc(-c2nn(-c3cccc(NC(=O)c4ccc(Cl)c(C(F)(F)F)c4)c3)cc2-c2ccncc2)ccc1Cl" no (0)

Record request — test call for "CC(=O)[O][Hg][c]1c(C)c(C)cc(C)c1C" no (0)

***
Record request — test call for "O=C(CC(Cl)=C(Cl)Cl)c1cccc(Cl)c1Cl" no (0)

Record request — test call for "CCCCCCCCCCCCCC[C@@H](O)[C@H]1CC[C@H]([C@H]2CC[C@H]([C@H](O)CCCCCC[C@@H](O)CC3=C[C@H](C)OC3=O)O2)O1" no (0)

Record request — test call for "COc1cc2cc(Oc3ccc(NC(=O)Nc4ccc(Cl)c(Cl)c4)cc3)c(C)nc2cc1OC" no (0)

Record request — test call for "CN1CSC(=S)N(Cc2ccccc2)C1" no (0)

Origin of measurements: PubChem BioAssay (NCI)
